In this section, each of the molecules is paired with its reported Stabilty.
# method.description: Metabolic stability in rat liver microsomes assessed as parent compound remaining measured after 10 mins in presence of NADPH
# Assay type: ADME, Microsome
# experimental.conditions: microsomes, 10 min
A number alone suffices; assume %.

Take a look at these entries with their results.
molecule | measured.attribute | scale.unit | measured.number
CCCCc1nc(=O)c(C(=O)N2CCC(c3ccc(Cl)cc3)C2)c(O)n1-c1c(OC)cccc1OC (stereo in doubt; 10b) | Stabilty | % | 8
CCCCc1nc(=O)c(C(=O)N2CCC(c3cccnc3)C2)c(O)n1-c1c(OC)cccc1OC (stereo in doubt; 12b) | Stabilty | % | 70
CCCCc1nc(=O)c(C(=O)N2CCC(c3ccccn3)C2)c(O)n1-c1c(OC)cccc1OC (stereo in doubt; 11b) | Stabilty | % | 62

Alright, here's another molecule for you.
Ask: Provide one value: measured Stabilty of CCCCc1nc(=O)c(C(=O)N2CCC(c3ccncc3)C2)c(O)n1-c1c(OC)cccc1OC (stereo in doubt; 13b)
Reply: 80

---

Here, each record is paired with measured EC50 data.
# target.desc: Apelin receptor (Homo sapiens, UniProt P35414)
# Sequence (P35414 whole entry): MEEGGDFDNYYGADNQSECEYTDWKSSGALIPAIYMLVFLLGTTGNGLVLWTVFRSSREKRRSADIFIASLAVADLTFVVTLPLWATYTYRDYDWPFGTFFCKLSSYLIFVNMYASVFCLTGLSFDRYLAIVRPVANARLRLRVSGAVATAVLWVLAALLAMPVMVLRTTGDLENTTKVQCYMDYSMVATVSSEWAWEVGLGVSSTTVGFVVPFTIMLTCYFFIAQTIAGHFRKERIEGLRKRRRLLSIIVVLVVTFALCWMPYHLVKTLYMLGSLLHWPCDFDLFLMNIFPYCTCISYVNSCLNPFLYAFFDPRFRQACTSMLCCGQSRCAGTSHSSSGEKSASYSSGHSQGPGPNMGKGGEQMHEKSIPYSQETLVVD
# method.description: Agonist activity at human APJ receptor expressed in HEK293T cells assessed as compound stimulated inhibition of forskolin stimulated cAMP production incubated for 30 mins by HTRF assay
# Assay type: functional, cell-based
Note: unit nM is implicit; provide only the numeric part.

Reference set (3 entries):
compound | target.desc | EC50, nM
CCOCc1[nH]c(=O)c(-c2nnc(Cc3ccc(C)cn3)o2)c(O)c1-c1c(OC)cccc1OC | Apelin receptor (Homo sapiens, UniProt P35414) | 0.023
CCCCc1nc(=O)c(C(=O)N2CCC(c3ccncc3)C2)c(O)n1-c1c(OC)cccc1OC (stereo in doubt; 13a) | Apelin receptor (Homo sapiens, UniProt P35414) | 1.5
CCCCc1[nH]c(=O)c(C(=O)N(C)CCc2ccc(Cl)cc2)c(O)c1-c1c(OC)cccc1OC | Apelin receptor (Homo sapiens, UniProt P35414) | 9.3

Please look at the following compound next.
Ask: Fill in reported EC50 for this entry: CCCCc1[nH]c(=O)c(C(=O)N2CC[C@H](c3ccccc3)C2)c(O)c1-c1c(OC)cccc1OC
Reply: 1

---

# method.description: Half life in Sprague-Dawley rat at 1 mg/kg, po via gavage measured after 48 hrs by LC/MS/MS analysis
# Type: ADME, organism-based
# experimental.conditions: in vivo
measured.attribute: half-life (h)
Give just the number in h; leave the unit off.

Ask: Give half-life for CCCCc1nc(=O)c(C(=O)N2CC[C@@H](c3ccc(Cl)cn3)C2)c(O)n1-c1c(OC)cccc1OC
Reply: 3.2

---

# target.desc: UniProt Q9JHG3
# method.description: Agonist activity at rat APJ receptor expressed in HEK293T cells assessed as compound stimulated inhibition of forskolin stimulated cAMP production incubated for 30 mins by HTRF assay
pEC50: −log10 of the molar value.
Could you label it condition met if measured pEC50 is 8 or higher, and condition not met otherwise?

Record excerpt, results attached:
compound | category
CCCCc1[nH]c(=O)c(C(=O)N(C)C)c(O)c1-c1c(OC)cccc1OC | condition not met
CCCCc1[nH]c(=O)c(C(=O)N2CC[C@H](c3ccccc3)C2)c(O)c1-c1c(OC)cccc1OC | condition met
CCCCc1[nH]c(=O)c(C(=O)N(CCC)Cc2ccccc2)c(O)c1-c1c(OC)cccc1OC | condition not met
CCCCc1nc(=O)c(C(=O)N2CC[C@H](c3ccc(Cl)cn3)C2)c(O)n1-c1c(OC)cccc1OC | condition met
CCCCc1nc(=O)c(C(=O)N2CC[C@@H](c3ccccc3)C2)c(O)n1-c1c(OC)cccc1OC | condition met
CCOCc1[nH]c(=O)c(-c2nnc(Cc3ccc(C)cn3)o2)c(O)c1-c1c(OC)cccc1OC | condition met

As a next step, examine the compound that follows.
Ask: // inclusive: pEC50 at least 8? input: CCCCc1nc(=O)c(C(=O)N2CCC(c3ccncc3)C2)c(O)n1-c1c(OC)cccc1OC (stereo in doubt; 13a)
Reply: condition met

---

Listed next: entries and their corresponding EC50.
# target.desc: Apelin receptor (Rattus norvegicus, UniProt Q9JHG3)
# Sequence (Q9JHG3 whole entry): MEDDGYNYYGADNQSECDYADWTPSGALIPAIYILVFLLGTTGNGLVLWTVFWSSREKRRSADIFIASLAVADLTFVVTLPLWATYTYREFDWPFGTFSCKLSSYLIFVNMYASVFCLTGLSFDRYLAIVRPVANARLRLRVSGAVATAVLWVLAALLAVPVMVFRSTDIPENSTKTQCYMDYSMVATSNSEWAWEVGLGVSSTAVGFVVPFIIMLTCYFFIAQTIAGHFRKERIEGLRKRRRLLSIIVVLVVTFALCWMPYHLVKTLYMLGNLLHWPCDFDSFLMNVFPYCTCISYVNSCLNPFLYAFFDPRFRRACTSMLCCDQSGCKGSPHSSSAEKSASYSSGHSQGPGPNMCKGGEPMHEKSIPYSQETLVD
# method.description: Agonist activity at rat APJ receptor expressed in HEK293T cells assessed as compound stimulated inhibition of forskolin stimulated cAMP production incubated for 30 mins by HTRF assay
Quick reminder: number only, in nM, skip the unit.

Examples from the recorded data:
compound | target.desc | measured.attribute | measured.number
CCOCc1nc(=O)c(C(=O)N2CC[C@H](c3ccccc3)C2)c(O)n1-c1c(OC)cccc1OC | Apelin receptor (Rattus norvegicus, UniProt Q9JHG3) | EC50 | 0.61
CCCCc1nc(=O)c(C(=O)N2CCC(c3cccnc3)C2)c(O)n1-c1c(OC)cccc1OC (stereo in doubt; 12b) | Apelin receptor (Rattus norvegicus, UniProt Q9JHG3) | EC50 | 0.4
CCCCc1[nH]c(=O)c(C(=O)N2CC[C@@H](c3ccccc3)C2)c(O)c1-c1c(OC)cccc1OC | Apelin receptor (Rattus norvegicus, UniProt Q9JHG3) | EC50 | 3.1

We now examine a further compound.
Ask: State its EC50 for this compound: CCCCc1nc(=O)c(C(=O)N2CCC(c3cccnc3)C2)c(O)n1-c1c(OC)cccc1OC (stereo in doubt; 12a)
Reply: 0.33

---

# method.description: Permeability of the compound at pH 7.4 by PAMPA assay
# Assay type: ADME
# experimental.conditions: read-out: permeability
Quick rule for you: Papp at 2 ×10⁻⁶ cm/s or higher means Fulfilled, lower means Not fulfilled.

Here's what some known entries look like.
molecule | category
CCCCc1nc(=O)c(C(=O)N2CCC(c3cccnc3)C2)c(O)n1-c1c(OC)cccc1OC (stereo in doubt; 12b) | Not fulfilled
CCCCc1nc(=O)c(C(=O)N2CCC(c3ccccn3)C2)c(O)n1-c1c(OC)cccc1OC (stereo in doubt; 11b) | Not fulfilled
CCCCc1nc(=O)c(C(=O)N2CC[C@H](c3ccccc3)C2)c(O)n1-c1c(OC)cccc1OC | Not fulfilled
CCCCc1nc(=O)c(C(=O)N2CCC(c3ccc(Cl)cc3)C2)c(O)n1-c1c(OC)cccc1OC (stereo in doubt; 10a) | Fulfilled
CCCCc1[nH]c(=O)c(C(=O)N2CC[C@@H](c3ccccc3)C2)c(O)c1-c1c(OC)cccc1OC | Fulfilled
CCCCc1nc(=O)c(C(=O)N2CCC(c3ccncc3)C2)c(O)n1-c1c(OC)cccc1OC (stereo in doubt; 13a) | Not fulfilled
CCOCc1nc(=O)c(C(=O)N2CC[C@H](c3ccccc3)C2)c(O)n1-c1c(OC)cccc1OC | Not fulfilled
CCCCc1[nH]c(=O)c(C(=O)N2CC[C@H](c3ccccc3)C2)c(O)c1-c1c(OC)cccc1OC | Not fulfilled

Ask: hey, is Papp for this one >= 2 ×10⁻⁶ cm/s? CCCCc1nc(=O)c(C(=O)N2CC[C@@H](c3ccccc3)C2)c(O)n1-c1c(OC)cccc1OC
Reply: Fulfilled

---

# method.description: Permeability of the compound at pH 5.5 by PAMPA assay
# Type: ADME
This listing pairs molecules with measured permeability.
Return type: number; implicit unit ×10⁻⁶ cm/s.

// below: answered molecules
molecule | scale.unit | permeability
CCCCc1nc(=O)c(C(=O)N2CCC(c3ccncc3)C2)c(O)n1-c1c(OC)cccc1OC (stereo in doubt; 13b) | ×10⁻⁶ cm/s | 1.9
CCCCc1nc(=O)c(C(=O)N2CCC(c3cccnc3)C2)c(O)n1-c1c(OC)cccc1OC (stereo in doubt; 12b) | ×10⁻⁶ cm/s | 2.1
CCCCc1nc(=O)c(C(=O)N2CCC(c3ccc(Cl)cc3)C2)c(O)n1-c1c(OC)cccc1OC (stereo in doubt; 10b) | ×10⁻⁶ cm/s | 38
CCCCc1nc(=O)c(C(=O)N2CCC(c3ccncc3)C2)c(O)n1-c1c(OC)cccc1OC (stereo in doubt; 13a) | ×10⁻⁶ cm/s | 0.9

// switching to the query molecule
Ask: Give me measured permeability, please, for this molecule: CCCCc1nc(=O)c(C(=O)N2CCC(c3ccccn3)C2)c(O)n1-c1c(OC)cccc1OC (stereo in doubt; 11b)
Reply: 7.8
